tested on: Human alphaherpesvirus 1; test: Antiviral activity against Herpes simplex virus 1 KOS infected in primary rabbit kidney cells assessed as inhibition of virus-induced cytopathogenicity; assay type: functional; settings: Human alphaherpesvirus 1, KOS
valueType: MIC

Please give measured MIC of the following entry: "NC(=O)COc1cn([C@@H]2O[C@H](CO)[C@@H](O)[C@H]2O)c(=O)[nH]c1=O"
> 600 µM

Please give measured MIC of the following entry: "O=c1[nH]c(=O)n([C@@H]2O[C@H](CO)[C@@H](O)[C@H]2O)cc1OCc1ccc([N+](=O)[O-])cc1"
> 600 µM

Please give measured MIC of the following entry: "Cc1ccc(COc2cn([C@@H]3O[C@H](CO)[C@@H](O)[C@H]3O)c(=O)[nH]c2=O)cc1"
> 600 µM
